protocol: self-splicing fitness, log relative to wild type (ln ratio); higher = more splicing; Tetrahymena group I intron in knt gene, E. coli kanamycin selection, DiMSum; sequences stand for … in CUCUCU…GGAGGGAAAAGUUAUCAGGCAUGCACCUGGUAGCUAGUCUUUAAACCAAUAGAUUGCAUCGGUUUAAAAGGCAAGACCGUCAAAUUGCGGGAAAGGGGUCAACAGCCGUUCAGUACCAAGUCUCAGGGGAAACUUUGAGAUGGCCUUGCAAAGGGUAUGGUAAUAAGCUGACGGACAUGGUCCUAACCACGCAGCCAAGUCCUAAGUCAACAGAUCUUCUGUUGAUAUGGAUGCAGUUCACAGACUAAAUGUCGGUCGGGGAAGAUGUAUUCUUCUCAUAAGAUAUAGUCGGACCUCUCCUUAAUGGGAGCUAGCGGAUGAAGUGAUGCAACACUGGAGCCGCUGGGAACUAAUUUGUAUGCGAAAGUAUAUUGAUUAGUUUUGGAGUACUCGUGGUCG;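 further: selection with 25 µg/mL kanamycin versus none on LB agar overnight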
conditions used: 37 °C
// label = Met if self-splicing fitness (ln) is not less than -1, otherwise Not met

{"entry sequence": "CAGAAGCAAUAUUACGGCAC", "label class": "Not met"}
{"entry sequence": "ACUUAGCAAUAUUACGUAGC", "label class": "Not met"}
{"entry sequence": "AAGCAGCAAUAUUACGUGCG", "label class": "Met"}
{"entry sequence": "AGUGAGCAAUAUUACGGACU", "label class": "Met"}
{"entry sequence": "UAACAGCAAUAUUACGGUAG", "label class": "Met"}
{"entry sequence": "ACUAAGCAAUAUUACGUGCA", "label class": "Met"}
{"entry sequence": "CGUGAGCAAUAUUACGGAAC", "label class": "Not met"}
{"entry sequence": "GGGUAGCAAUAUUACGUCUG", "label class": "Not met"}
